target: Protein cereblon/Carbonic anhydrase 2 (Homo sapiens, UniProt P00918+Q96SW2); test: Protac activity at CRBN/CA-2 in HEK293 cells assessed as degradation of carbonic anhydrase-2
measure: EC50 (nM)
Give bare numbers, in nM.

>  <compound>
NS(=O)(=O)c1ccc(C(=O)NCCCOCCOCCOCCCNc2cccc3c2C(=O)N(C2CCC(=O)NC2=O)C3=O)cc1 (configuration not stated)

>  <display_unit>
nM

>  <EC50>
245

$$$$

Would you kindly look at the next entry?
Please give the measured EC50 for this compound: NS(=O)(=O)c1ccc(C(=O)NCCCOCCCCOCCCNc2cccc3c2C(=O)N(C2CCC(=O)NC2=O)C3=O)cc1 (configuration not stated) 5
